- ASSAY_METHOD_TEXT: Single oral dose plasma pharmacokinetics in healthy subjects
- Assay type: in vivo, human
- TEST_CONTEXT: human, 3000 ug; healthy subjects, single oral dose 3000 μg, fasted, plasma; mean
QUANTITY_KIND: AUC(0-t)
Please answer in the form of a number followed by its unit of measurement.

Give the measured AUC(0-t) of O=C(O)c1cc(F)c2nc(N3C4CC[C@H]3CC(OCc3c(-c5ccccc5OC(F)(F)F)noc3C3CC3)C4)sc2c1 (stereo partly shown) .
888 ng·h/mL

---

- ASSAY_METHOD_TEXT: Single oral dose plasma pharmacokinetics in healthy subjects
- Format: in vivo, human
- TEST_CONTEXT: human, 3000 ug; healthy subjects, single oral dose 3000 μg, fasted, plasma; mean
QUANTITY_KIND: AUC(0-inf) (ng·h/mL)
Response body: numeric value in ng·h/mL, unit text excluded.

Give the measured AUC(0-inf) of O=C(O)c1cc(F)c2nc(N3C4CC[C@H]3CC(OCc3c(-c5ccccc5OC(F)(F)F)noc3C3CC3)C4)sc2c1 (stereo partly shown) .
933

---

- ASSAY_METHOD_TEXT: Multiple oral dose plasma pharmacokinetics in healthy subjects
- Format: in vivo, human
- TEST_CONTEXT: human, plasma, oral, 30 ug, healthy subjects, 30 μg qd, Day 1, plasma; mean; read-out: AUCtau
QUANTITY_KIND: AUC
Please answer in the form of a number followed by its unit of measurement.

Give the measured AUC of O=C(O)c1cc(F)c2nc(N3C4CC[C@H]3CC(OCc3c(-c5ccccc5OC(F)(F)F)noc3C3CC3)C4)sc2c1 (stereo partly shown) .
11.7 ng·h/mL

---

- ASSAY_METHOD_TEXT: Single oral dose plasma pharmacokinetics in healthy subjects
- Type: in vivo, human
- TEST_CONTEXT: human, 300 ug; healthy subjects, single oral dose 300 μg, fasted, plasma; mean
QUANTITY_KIND: AUC(0-inf)
Please answer in the form of a number followed by its unit of measurement.

Give the measured AUC(0-inf) of O=C(O)c1cc(F)c2nc(N3C4CC[C@H]3CC(OCc3c(-c5ccccc5OC(F)(F)F)noc3C3CC3)C4)sc2c1 (stereo partly shown) .
123 ng·h/mL

---

- ASSAY_METHOD_TEXT: Multiple oral dose plasma pharmacokinetics in healthy subjects
- Format: in vivo, human
- TEST_CONTEXT: human, plasma, oral, 60 ug, healthy subjects, 60 μg qd, Day 13, plasma; median; read-out: Tmax
QUANTITY_KIND: Tmax (h)
Response body: numeric value in h, unit text excluded.

Give the measured Tmax of O=C(O)c1cc(F)c2nc(N3C4CC[C@H]3CC(OCc3c(-c5ccccc5OC(F)(F)F)noc3C3CC3)C4)sc2c1 (stereo partly shown) [Compound A] .
4

---

- ASSAY_METHOD_TEXT: Pharmacokinetics in the chronic 2 week rat ANIT-induced cholestasis model
- Type: in vivo
- TEST_CONTEXT: male, Wistar, po, 0.25 mg/kg, day 13, serum, read-out: AUC 0-24 hr
QUANTITY_KIND: AUC(0-t) (ng·h/mL)
Response body: numeric value in ng·h/mL, unit text excluded.

Give the measured AUC(0-t) of O=C(O)c1cc(F)c2nc(N3C4CC[C@H]3CC(OCc3c(-c5ccccc5OC(F)(F)F)noc3C3CC3)C4)sc2c1 (stereo partly shown) [Compound A] .
158

Origin of measurements: patent US20210386729A1
